- System: HCT-8/NC cells
- measurement_conditions: human, 41 h
Where a name gives a salt, the structure may show the parent alone.
I'd be grateful if you could share measured TC50 for these entries.

Examples with answers:
| molecule | TC50 |
| --- | --- |
| COc1cccc2c1C(=O)c1c(O)c3c(c(O)c1C2=O)C[C@@](O)(C(C)=O)C[C@@H]3O[C@H]1C[C@H](N)[C@H](O)[C@H](C)O1 [Daunorubicin, Daunorubicin HCl] | 4.16 µM |
| COc1cccc2c1C(=O)c1c(O)c3c(c(O)c1C2=O)C[C@@](O)(C(=O)CO)C[C@@H]3O[C@H]1C[C@H](N)[C@H](O)[C@H](C)O1 [Doxorubicin, Doxorubicin HCl] | 4.34 µM |
| CC(=O)O[C@H]1C(=O)[C@@]2(C)[C@H]([C@H](OC(=O)c3ccccc3)[C@]3(O)C[C@H](OC(=O)[C@H](O)[C@@H](NC(=O)c4ccccc4)c4ccccc4)C(C)=C1C3(C)C)[C@]1(OC(C)=O)CO[C@@H]1C[C@@H]2O | 12.37 µM |

Request the reported TC50 associated with O=C1c2c(O)ccc(O)c2C(=O)c2c(NCCNCCO)ccc(NCCNCCO)c21 [Mitoxantrone, Mitoxantrone 2HCl]
4.11 µM

###

- Tested on: HCT-8/NC(NTZ) cells
- assay_overview: MTS cytotoxicity (drug tolerance) assay
- measurement_conditions: human, 41 h
Structures can show the parent of a compound that is named as a salt.
parameter_measured: TC50
Your answer should be a number followed by the unit of measure.

Please go through the list and note TC50 for each compound.
1. COc1cccc2c1C(=O)c1c(O)c3c(c(O)c1C2=O)C[C@@](O)(C(C)=O)C[C@@H]3O[C@H]1C[C@H](N)[C@H](O)[C@H](C)O1 [Daunorubicin, Daunorubicin HCl]
2. COc1cccc2c1C(=O)c1c(O)c3c(c(O)c1C2=O)C[C@@](O)(C(=O)CO)C[C@@H]3O[C@H]1C[C@H](N)[C@H](O)[C@H](C)O1 [Doxorubicin, Doxorubicin HCl]
3. CC(=O)O[C@H]1C(=O)[C@@]2(C)[C@H]([C@H](OC(=O)c3ccccc3)[C@]3(O)C[C@H](OC(=O)[C@H](O)[C@@H](NC(=O)c4ccccc4)c4ccccc4)C(C)=C1C3(C)C)[C@]1(OC(C)=O)CO[C@@H]1C[C@@H]2O [Paclitaxel]
4. O=C1c2c(O)ccc(O)c2C(=O)c2c(NCCNCCO)ccc(NCCNCCO)c21 [Mitoxantrone, Mitoxantrone 2HCl]

1: 3.85 µM; 2: 4.21 µM; 3: 12.73 µM; 4: 4.19 µM

###

- Test system: Cryptosporidium parvum
- assay_overview: Anti-cryptosporidial efficacy assay (44-h infection/qRT-PCR)
- measurement_conditions: Cryptosporidium parvum, read-out: Antiparasitic efficacy (EC50), C. parvum cultured in WT host cells
Structures can show the parent of a compound that is named as a salt.
With a cut-off of 1000 nM, any EC50 strictly below it is called true (1); any EC50 meeting it or above is called false (0).

| compound | assigned_label |
| --- | --- |
| CC[C@]1(O)C[C@H]2CN(CCc3c([nH]c4ccccc34)[C@@](C(=O)OC)(c3cc4c(cc3OC)N(C=O)[C@H]3[C@@](O)(C(=O)OC)[C@H](OC(C)=O)[C@]5(CC)C=CCN6CC[C@]43[C@@H]65)C2)C1 [Vincristine, Vincristine sulphate] | false (0) |
| CC(=O)O[C@H]1C(=O)[C@@]2(C)[C@H]([C@H](OC(=O)c3ccccc3)[C@]3(O)C[C@H](OC(=O)[C@H](O)[C@@H](NC(=O)c4ccccc4)c4ccccc4)C(C)=C1C3(C)C)[C@]1(OC(C)=O)CO[C@@H]1C[C@@H]2O | true (1) |
| CC(=O)Oc1ccccc1C(=O)Nc1ncc([N+](=O)[O-])s1 [Nitazoxanide] | false (0) |
| O=C1c2c(O)ccc(O)c2C(=O)c2c(NCCNCCO)ccc(NCCNCCO)c21 [Mitoxantrone, Mitoxantrone 2HCl] | false (0) |

Now, please, on to the next compound.
Input COc1cccc2c1C(=O)c1c(O)c3c(c(O)c1C2=O)C[C@@](O)(C(=O)CO)C[C@@H]3O[C@H]1C[C@H](N)[C@H](O)[C@H](C)O1 [Doxorubicin, Doxorubicin HCl] ; condition: EC50 strictly below 1000 nM. Does it hold?
false (0)

The reported measurements were obtained from paper PMC10079235.
